System: Plasmodium falciparum
testDescription: Primary screen in NF54 nanoGlo assay, in single point, at 2uM, 72h
Type: functional, Erythrocyte
studyConditions: timepoint 72 hour
Among all 150,000 compounds or so, about 540 (0.36%) showed an effect of 50% or more. The sample holds strong results, similar compounds and a random draw of the others, so the mix is not that of the screen.
quantity: % Inhibition (%)
Could you give me the number in %? Just the number is fine.

Form field % Inhibition, entry CC1(C)C(CNC(=O)CCn2cc(C(N)=O)c(=O)[nH]c2=O)C1(C)C : 19

Form field % Inhibition, entry CC1=C(c2ccc(Cl)cc2)S(=O)(=O)N=C1N1CCC(C(=O)NCCN(C)C)CC1 : -18

Recorded values, source ChEMBL document CHEMBL4888484.
